# Target or system: human DA D3 receptors (Homo sapiens (Human))
# Measurement notes: [35S]GTPγS binding stimulation, human D3 receptors in CHO cells
# Assay type: biochemical
# Condition notes: compared with maximum stimulation by full agonist DA
In this section we review reported Emax values for a set of molecules.

Illustrative cases are given below, each with its answer.
molecule="CCCN(CCN1CCN(c2ccc3c(c2)[nH]c2ccccc23)CC1)[C@H]1CCc2c(O)cccc2C1 [Compound (−)-95a]" test_value="85 to 92%"
molecule="CCCN(CCN1CCN(c2cccc3[nH]c4ccccc4c23)CC1)[C@H]1CCc2c(O)cccc2C1 [Compound (−)-95c]" test_value="74 to 88%"
molecule="CCCN(CCN1CCN(c2cccc3[nH]c4ccccc4c23)CC1)[C@H]1CCc2nc(N)sc2C1 [(−)-91c]" test_value=82%

The record that follows has no Emax shown yet.
# return recorded Emax for input CCCN(CCN1CCN(c2ccc3[nH]c4ccccc4c3c2)CC1)[C@H]1CCc2nc(N)sc2C1 [(−)-91b]
87 to 93%

###

# Target or system: human DA D3 receptors (Homo sapiens (Human), UniProt P35462)
# Sequence (P35462 whole entry): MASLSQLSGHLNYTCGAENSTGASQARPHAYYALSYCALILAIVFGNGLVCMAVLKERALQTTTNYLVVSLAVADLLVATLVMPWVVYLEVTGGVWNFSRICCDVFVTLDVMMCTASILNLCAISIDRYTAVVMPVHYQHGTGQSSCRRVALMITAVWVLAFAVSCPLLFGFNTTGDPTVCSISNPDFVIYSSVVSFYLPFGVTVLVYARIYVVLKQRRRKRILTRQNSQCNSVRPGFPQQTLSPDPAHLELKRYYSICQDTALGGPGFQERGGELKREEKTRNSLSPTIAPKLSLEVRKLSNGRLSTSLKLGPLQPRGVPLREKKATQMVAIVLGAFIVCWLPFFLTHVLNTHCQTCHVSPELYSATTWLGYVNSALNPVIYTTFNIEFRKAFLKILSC
# Measurement notes: [35S]GTPγS binding stimulation, human D3 receptors in CHO cells
# Assay type: biochemical
# Condition notes: CHO cells; read-out: EC50 (GTPγS), D3
Readout name: EC50 (nM)

molecule="CCCN(CCN1CCN(c2ccc3[nH]c4ccccc4c3c2)CC1)[C@H]1CCc2nc(N)sc2C1 [(−)-91b]" readout_name=EC50 display_unit=nM test_value=0.96

P: CCCN(CCN1CCN(c2cccc3[nH]c4ccccc4c23)CC1)[C@H]1CCc2nc(N)sc2C1 [(−)-91c]
Q: CCCN(CCN1CCN(c2cccc3[nH]c4ccccc4c23)CC1)[C@H]1CCc2c(O)cccc2C1 [Compound (−)-95c]
Given P and given Q , which shows the smaller recorded EC50? Identify your selection by its label.
Q
(Q: 0.22 nM, P: 1.67 nM)

###

# Target or system: UniProt P61169
# Sequence (P61169 whole entry): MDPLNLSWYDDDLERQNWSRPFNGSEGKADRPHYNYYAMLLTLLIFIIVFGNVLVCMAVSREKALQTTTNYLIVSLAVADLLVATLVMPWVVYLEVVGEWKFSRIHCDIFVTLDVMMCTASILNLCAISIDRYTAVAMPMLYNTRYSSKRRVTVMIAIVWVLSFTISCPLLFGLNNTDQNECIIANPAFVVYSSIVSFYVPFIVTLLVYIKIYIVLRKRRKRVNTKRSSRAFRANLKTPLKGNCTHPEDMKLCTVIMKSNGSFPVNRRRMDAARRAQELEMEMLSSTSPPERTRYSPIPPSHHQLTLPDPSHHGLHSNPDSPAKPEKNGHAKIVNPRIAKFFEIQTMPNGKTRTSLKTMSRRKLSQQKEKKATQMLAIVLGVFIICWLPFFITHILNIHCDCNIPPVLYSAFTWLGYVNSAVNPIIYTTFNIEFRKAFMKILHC
# Measurement notes: [3H]spiperone displacement, cloned D2L receptors in HEK cells
# Type: binding
# Condition notes: means±SEM for 3 experiments
Readout name: Ki (nM)

Illustrative cases are given below, each with its answer.
compound=CCCN(CCN1CCN(c2ccc3c(c2)C(=O)C(=O)N3)CC1)[C@H]1CCc2nc(N)sc2C1 test_value=162
compound="CCCN(C/C=C/c1ccc(O)c(OC)c1)C1CCc2nc(N)sc2C1 (centres unmarked)" test_value=4630
compound="CCCN(CCCCCc1ccc(O)c(O)c1)[C@@H]1CCc2nc(N)sc2C1 [(−)-34]" test_value=65.7
compound="CCCN(CCCCCc1ccc(O)c(OC)c1)C1CCc2nc(N)sc2C1 (centres unmarked)" test_value=175

1: CCCN(CCCCCc1ccc(O)c(O)c1)C1CCc2nc(N)sc2C1 (centres unmarked)
2: CCCN(CCCc1ccc(O)c(OC)c1)C1CCc2nc(N)sc2C1 (centres unmarked)
3: CCCN(CCC/C=C\c1ccc(O)c(OC)c1)C1CCc2nc(N)sc2C1 (centres unmarked)
4: CCCN(CCCCCc1ccc(O)c(OC)c1)[C@@H]1CCc2nc(N)sc2C1 [(−)-23]
# ascending order, key=Ki Answer format: the labels, in the requested order.
4, 1, 3, 2
(4: 68.3 nM, 1: 116 nM, 3: 233 nM, 2: 2400 nM)
